# MEASUREMENT PROTOCOL: Assay C: permeability in CACO-2 cells
# Assay type: in vitro ADME
# SETUP CONDITIONS: human; compounds of the invention; Caco-2, apical to basolateral, pH 7.2
QUANTITY MEASURED: Papp A→B at 2 h (×10⁻⁶ cm/s)
Expressed in ×10⁻⁶ cm/s, but write only the number.

Would you please look over these solved cases?
Cn1cnnc1C1(F)CCN(c2c(C#N)cc(C(F)(F)F)nc2-c2cnc3nc(C(F)(F)F)nn3c2)CC1 [Example 12]: 4.9
Cn1cnnc1C1(F)CCN(c2c(C#N)cc(C(F)(F)F)nc2-c2cnc3nn(C(C)(C)C(F)(F)F)cc3c2)CC1 [Example 6]: 7.2
Cn1cnnc1C1(F)CCN(c2c(C#N)cc(C(F)(F)F)nc2-c2cnc3nn(C(C)(C)C)c(F)c3c2)CC1 [Example 2]: 16

Okay, next one:
## Task Respond only with Papp A→B at 2 h recorded for Cn1cnnc1C1(F)CCN(c2c(C#N)cc(C(F)(F)F)nc2-c2cnc(F)cc2Cl)CC1 [Example 10]
## Result 58

---

The entries below come with measured pIC50 values attached.
# Tested on: SIRPα signalling induced by Raji cells
# MEASUREMENT PROTOCOL: Assay B: SIRPα signalling assay using Raji cells
# Assay type: cell-based
# SETUP CONDITIONS: Homo sapiens; compounds of the invention; Raji cells 48 h, Jurkat PathHunter SIRPαV1 reporter cells 5 h; read-out: Inhibition of SIRPα signalling induced by Raji cells: IC50
# Experimental: Two cell types are independently used: the Raji cell line (lymphoblast-like human cell line derived from B lymphocytes from a Burkitt's lymphoma patient in 1963) and A549 cells (adenocarcinoma human alveolar basal epithelial cells). […] The analysis of the data was performed using the luminescence signal generated by beta-galactosidase in the PathHunter reporter cell line. The luminescence measurement was done using a Pherastar Multi-Mode Reader. […]
In simple prose, pIC50 is minus the logarithm base ten of a concentration in moles per litre.

Some entries whose results are on file:
Cc1cc(C#N)c(N2CCC(F)(c3nncn3C)CC2)c(-c2cnc3nn(C(C)(C)C)c(F)c3c2)n1: 8.05
Cn1cnnc1C1(F)CCN(c2c(C#N)cc(C(F)(F)F)nc2-c2cnc3nn(C(C)(C)C)c(F)c3c2)CC1: 7.77
Cc1cncc(-c2nccc(C#N)c2N2CCC(F)(c3nncn3C)CC2)c1: 5.86
Cn1cnnc1C1(F)CCN(c2c(C#N)cc(C(F)(F)F)nc2-c2cnc3nc(C(C)(C)C)nn3c2)CC1: 7.33
Cn1cnnc1C1(F)CCN(c2c(C#N)cc(C(F)(F)F)nc2-c2cnc3nn(C(F)(F)F)nc3c2)CC1: 6.06

## Task Please give the documented pIC50 of "Cn1cnnc1C1(F)CCN(c2c(C#N)cc(C3CC3)nc2-c2cnc3nn(C(C)(C)C)cc3c2)CC1"
## Result 8.15

## Task Output pIC50 of "Cc1cc(C#N)c(N2CCC(F)(c3nncn3C)CC2)c(-c2cnc3nn(C(C)(C)C)c(C(F)(F)F)c3c2)n1"
## Result 7.59

## Task Query pIC50 for "Cn1cnnc1C1(F)CCN(c2c(C#N)ccnc2-c2cccnc2)CC1"
## Result 5.66

---

# System: SIRPα signalling induced by Raji cells
# MEASUREMENT PROTOCOL: Assay B: SIRPα signalling assay using Raji cells
# Type: cell-based
# SETUP CONDITIONS: Homo sapiens; compounds of the invention; Raji cells 48 h, Jurkat PathHunter SIRPαV1 reporter cells 5 h; read-out: Inhibition of SIRPα signalling induced by Raji cells: IC50
Here, each record is paired with measured pIC50 data.
// field semantics: pIC50 = negative decimal log of concentration (mol/L)

Cn1cnnc1C1(F)CCN(c2c(C#N)ccnc2-c2cnc3nn(C(F)(F)F)nc3c2)CC1: 6.03

## Task Give the reported value of pIC50 for this record: "CC(C)n1nc2ncc(-c3nc(C4CC4)cc(C#N)c3N3CCC(F)(c4nncn4C)CC3)cc2c1F"
## Result 7.60

## Task Answer with the recorded pIC50 for the compound listed here: "Cn1cnnc1C1(F)CCN(c2c(C#N)cc(C(F)(F)F)nc2-c2cnc3nn(C(C)(C)C(F)(F)F)cc3c2)CC1"
## Result 7.59

## Task Give reported pIC50 value for "Cn1cnnc1C1(F)CCN(c2c(C#N)cc(C(F)(F)F)nc2-c2cnc3nn(C(C)(C)C)c(C(F)(F)F)c3c2)CC1"
## Result 7.51

---

# MEASUREMENT PROTOCOL: Assay C: permeability in CACO-2 cells
# Type: in vitro ADME
# SETUP CONDITIONS: human; compounds of the invention; Caco-2, apical to basolateral, pH 7.2
This section presents molecules with their documented Papp A→B at 2 h values.
Give the figure together with its unit, number first.

Answered examples (5):
Cn1cnnc1C1(F)CCN(c2c(C#N)cc(C(C)(F)F)nc2-c2cnc3nn(C(C)(C)C)cc3c2)CC1 [Example 32]: 8.2 ×10⁻⁶ cm/s
Cn1cnnc1C1(F)CCN(c2c(C#N)cc(C(F)(F)F)nc2-c2cnc3nn(C(C)(C)C)cc3c2)CC1 [Example 1]: 5.3 ×10⁻⁶ cm/s
Cn1cnnc1C1(F)CCN(c2c(C#N)cc(C(F)F)nc2-c2ccc(F)nc2)CC1 [Example 35]: 17 ×10⁻⁶ cm/s
Cn1cnnc1C1(F)CCN(c2c(C#N)cc(C(C)(F)F)nc2-c2cnc3nn(C(C)(C)C)c(F)c3c2)CC1 [Example 33]: 31 ×10⁻⁶ cm/s
Cc1cc(C#N)c(N2CCC(F)(c3nncn3C)CC2)c(-c2cnc3nn(C(C)(C)C)c(C(F)(F)F)c3c2)n1 [Example 27]: 38 ×10⁻⁶ cm/s

## Task Supply recorded Papp A→B at 2 h for Cn1cnnc1C1CCN(c2c(C#N)cc(C(F)(F)F)nc2-c2cnc3nn(C(C)(C)C)c(C(F)(F)F)c3c2)CC1 [Example 13] here.
## Result 3.7 ×10⁻⁶ cm/s

## Task Please give the documented Papp A→B at 2 h of Cn1cnnc1C1(F)CCN(c2c(C#N)cc(C(F)(F)F)nc2-c2cnc3nn(C(C)(C)C)nc3c2)CC1 [Example 8]
## Result 31 ×10⁻⁶ cm/s

## Task Please indicate Papp A→B at 2 h recorded for Cc1cc(C#N)c(N2CCC(F)(c3nncn3C)CC2)c(-c2cnc3nn(C(C)(C)C)c(F)c3c2)n1 [Example 25]
## Result 7.6 ×10⁻⁶ cm/s

---

# MEASUREMENT PROTOCOL: Assay C: permeability in CACO-2 cells
# Type: in vitro ADME
# SETUP CONDITIONS: human, Caco-2, pH 7.2
QUANTITY MEASURED: efflux ratio at 2 h

Nc1ncc(C2CCN(c3ncccc3-c3ccc(F)nc3)CC2)s1: 1

Could you now consider this next compound?
## Task Please indicate efflux ratio at 2 h recorded for "Nc1nnc(C2CCN(c3ncccc3-c3ccc(F)nc3)CC2)s1"
## Result 0.5

---

This section presents compounds with their documented efflux ratio at 2 h values.
# MEASUREMENT PROTOCOL: Assay C: permeability in CACO-2 cells
# Type: in vitro ADME
# SETUP CONDITIONS: human, pH 7.2; compounds of the invention; Caco-2, permeability B-A / permeability A-B
Write the value as a bare number.

Examples from the recorded data:
Cn1cnnc1C1(F)CCN(c2c(-c3cnc4nn(C(C)(C)C)cc4c3)ncc(Cl)c2C#N)CC1: 10.9
Cn1cnnc1C1(F)CCN(c2c(C#N)cc(C(F)(F)F)nc2-c2cnc3nc(C(C)(C)C)nn3c2)CC1: 14.9
Cn1cnnc1C1(F)CCN(c2c(C#N)cc(C(F)(F)F)nc2-c2cnc3nn(C(C)(C)C)nc3c2)CC1: 2.6
Cn1cnnc1C1CCN(c2c(C#N)cc(C(F)(F)F)nc2-c2cnc3nn(C(C)(C)C)c(C(F)(F)F)c3c2)CC1: 5.7
Cn1cnnc1C1(F)CCN(c2c(C#N)ccnc2-n2cnc3nc(C(F)(F)F)ccc32)CC1: 14.1

## Task Quick one: give measured efflux ratio at 2 h for "Cc1cc(F)ncc1-c1nccc(C#N)c1N1CCC(F)(c2nncn2C)CC1"
## Result 2.4

## Task Answer with the recorded efflux ratio at 2 h for the compound listed here: "Cn1cnnc1C1(F)CCN(c2c(C#N)cc(C(F)(F)F)nc2-c2cnc3nn(C(F)(F)F)nc3c2)CC1"
## Result 1.4

## Task // Input: "Cn1cnnc1C1(F)CCN(c2c(-c3ccc(F)nc3)ncc(Cl)c2C#N)CC1" . Output its efflux ratio at 2 h only.
## Result 2.9

---

# MEASUREMENT PROTOCOL: Assay C: permeability in CACO-2 cells
# Assay type: in vitro ADME
# SETUP CONDITIONS: human; compounds of the invention; Caco-2, apical to basolateral, pH 7.2
# Method: Caco-2 cells (1-2×10^5 cells/1 cm^2 area) are seeded on filter inserts (Costar transwell polycarbonate or PET filters, 0.4 μm pore size) and cultured (DMEM) for 10 to 25 days. Compounds are dissolved in appropriate solvent (like DMSO, 1-20 mM stock solutions). […] The transport solution (TL) is applied to the apical or basolateral donor side for measuring A-B or B-A permeability (3 filter replicates), respectively. […]
QUANTITY MEASURED: Papp A→B at 2 h
Record the result as a number with its unit.

Solved entries:
Cn1cnnc1C1(F)CCN(c2c(C#N)cc(C3CC3)nc2-c2cnc3nn(C(C)(C)C)c(F)c3c2)CC1: 29 ×10⁻⁶ cm/s
Cn1cnnc1C1(F)CCN(c2c(C#N)ccnc2-c2cnc3nn(C(C)(C)C)c(C(F)(F)F)c3c2)CC1: 35 ×10⁻⁶ cm/s
Cn1cnnc1C1(F)CCN(c2c(C#N)cc(C(F)(F)F)nc2-c2cnc3nn(C(C)(C)C)c(C(F)(F)F)c3c2)CC1: 99.5 ×10⁻⁶ cm/s

Now take the following compound into account.
## Task Quote Papp A→B at 2 h reported for "Cn1cnnc1C1(F)CCN(c2c(-c3cnc4nn(C(C)(C)C)cc4c3)ncc(Cl)c2C#N)CC1" please.
## Result 6.6 ×10⁻⁶ cm/s
